# assay-system: Ubiquitin carboxyl-terminal hydrolase 8 (Homo sapiens) (UniProt P40818)
# Sequence (P40818 whole entry, looked up): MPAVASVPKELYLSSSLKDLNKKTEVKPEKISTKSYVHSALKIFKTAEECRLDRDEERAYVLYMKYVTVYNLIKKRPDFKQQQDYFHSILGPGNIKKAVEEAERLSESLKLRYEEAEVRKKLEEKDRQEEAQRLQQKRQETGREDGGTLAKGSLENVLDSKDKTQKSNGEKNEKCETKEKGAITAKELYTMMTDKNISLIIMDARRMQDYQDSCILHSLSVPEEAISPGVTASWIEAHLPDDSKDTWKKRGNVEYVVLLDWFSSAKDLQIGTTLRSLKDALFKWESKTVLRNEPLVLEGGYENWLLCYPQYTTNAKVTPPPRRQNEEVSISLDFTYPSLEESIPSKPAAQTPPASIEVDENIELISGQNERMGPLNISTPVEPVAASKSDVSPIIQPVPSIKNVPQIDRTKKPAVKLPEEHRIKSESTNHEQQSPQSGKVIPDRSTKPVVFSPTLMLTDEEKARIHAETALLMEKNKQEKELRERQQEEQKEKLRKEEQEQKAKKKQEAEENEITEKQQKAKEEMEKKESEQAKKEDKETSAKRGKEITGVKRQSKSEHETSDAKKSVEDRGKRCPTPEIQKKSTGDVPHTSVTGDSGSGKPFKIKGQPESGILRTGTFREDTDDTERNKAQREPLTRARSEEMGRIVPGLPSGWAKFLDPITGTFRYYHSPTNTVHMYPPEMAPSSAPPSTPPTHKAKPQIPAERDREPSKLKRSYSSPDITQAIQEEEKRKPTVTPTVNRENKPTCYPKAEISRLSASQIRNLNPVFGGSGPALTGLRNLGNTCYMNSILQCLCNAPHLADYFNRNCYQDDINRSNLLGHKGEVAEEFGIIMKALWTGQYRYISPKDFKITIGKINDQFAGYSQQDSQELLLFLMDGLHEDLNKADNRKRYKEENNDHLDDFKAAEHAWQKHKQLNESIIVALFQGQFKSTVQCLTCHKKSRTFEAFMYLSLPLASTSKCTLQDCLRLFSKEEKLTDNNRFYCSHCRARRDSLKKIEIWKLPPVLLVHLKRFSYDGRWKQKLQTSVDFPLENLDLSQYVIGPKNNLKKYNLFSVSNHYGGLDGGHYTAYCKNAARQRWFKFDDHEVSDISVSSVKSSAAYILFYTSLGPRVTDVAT
# assay-protocol: Ubiquitin-specific protease 8 inhibitors, concentration-effect, biochemical, validation of initial actives (AID 1645862);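 note: potency reflects inhibition of USP8 cleavage of a ubiquitin rhodamine substrate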
# condition-notes: recombinant USP8 deubiquitinase activity assay
Calls of active or inactive are those of the source. The rule behind the calls is not given here.
Classes used: t for active, f for inactive

molecule="Cc1ccccc1Cn1c(=O)n(CC2CCC(C(=O)NC3CCCC3)CC2)c(=O)c2ccccc21 (stereo not given)" assigned_class=f
molecule=Cc1ccc(NC(=O)Cn2c(=O)n(CC(=O)NCCc3ccccc3)c(=O)c3sccc32)cc1C assigned_class=f
molecule="C=C1C=C(CCC(=O)O)C(=O)OC1/C=C/C=C/C (stereo not given)" assigned_class=t
molecule=Cn1cc2cccc(NC(=O)c3ccc(F)cc3)c2n1 assigned_class=f
molecule=Cc1cc(NC(=O)CN2CCCN(S(=O)(=O)c3ccc(F)cc3)CC2)ccc1Br assigned_class=f
molecule=Cc1ccc(Nc2nc(NCC(=O)Nc3cc(C)ccc3C)nc(Nc3ccc(C)cc3)n2)cc1 assigned_class=f
molecule=Cc1cc(C)c(NC(=O)Cn2c(=O)n(CCC(=O)NCc3ccc4c(c3)OCO4)c(=O)c3sccc32)c(C)c1 assigned_class=f
molecule=Cc1cc(C(=O)N2CCOCC2)c(C)n1-c1ccc(O)cc1 assigned_class=t
molecule=Cc1cc(=O)n(C)c2c(O)c3c(cc12)c(C)cc(=O)n3C assigned_class=t
molecule=CCc1nc(SCC(=O)Nc2cc(Cl)ccc2C)c2oc3ccccc3c2n1 assigned_class=f
